Would you kindly list IC50 for each of these molecules?
System: A549 cells
Assay: Cell viability (CellTiter-Glo ATP content) in A549 cells
Type: cell-based
Conditions: Homo sapiens, A549, 72 h, 72 hours treatment, cell survival by CellTiter-Glo, 2% fetal bovine serum

Prompt line: Form field - read-out: IC50; system: A549 cells; submitted item: CC(C)(CO)CCCNC(=O)C1(C)C(c2cccs2)C(c2ccc(F)cc2)=NN1c1ccccc1 (stereo not shown) [Compound 20]
Response line: 0.5 to 1 µM

Prompt line: Same lookup for CCCCC1C(c2ccc(F)cc2)=NN(c2ccccc2)C1(C)C(=O)NCCCCCCO (stereo not shown) [Compound 34] , please.
Response line: > 2 µM

Prompt line: Param item: CCCCC1(C)C(c2ccc(F)cc2)=NN(c2ccc(F)cc2F)C1(C)C(=O)NCCOC (stereo not shown) [Compound 88]
Response line: > 2 µM

Prompt line: And what about the molecule CC1(C(=O)NCC(=O)OCCO)C(c2cccs2)C(c2ccc(F)cc2)=NN1c1ccc(F)cc1F (stereo not shown) [Compound 128] ?
Response line: 0.5 to 1 µM
